Source: patent US9249147B2

The following molecules are shown together with reported recovery at 10 µM values.
# Procedure Details: Caco-2 (TC7) A-B Permeability test (pH 6.5/7.4)
# Particulars: human, Caco-2, pH 6.5, Mean Recovery, A-B Permeability (TC7, pH 6.5/7.4), test concentration 1.0E−05 M, mean of n = 2
Unit % implied. Number only.

Illustrative cases are given below, each with its answer.
# Molecule, Readout Value
measured = [
    ("CNC(=C[N+](=O)[O-])NCCSCc1ccc(CN(C)C)o1 [Ranitidine]", 95),
    ("COc1cc2c(c(OC)c1OC)-c1ccc(OC)c(=O)cc1[C@@H](NC(C)=O)CC2 [Colchicine]", 97),
    ("CC(CCc1ccccc1)NCC(O)c1ccc(O)c(C(N)=O)c1 (stereo not shown) [Labetalol]", 90),
]

Then there is this molecule:
*Q* Which recovery at 10 µM is listed for Cc1ccc(F)cc1C[C@H](C)Nc1cc[nH]c(=O)c1-c1nc2cc3c(cc2[nH]1)C(=O)N(CCN1CCCC1)C3 [compound (II)] ?
*A* 49
